Tested on: DLD1
Assay: TCF/Wnt firefly luciferase reporter signal relative to plate median (fraction of plate median); higher = higher Wnt reporter signal
Conditions: 5 µM; treatment time 24 h; reporter: 7TFP
endpoint.label: TCF/Wnt firefly luciferase reporter signal
Answer field: number only, no words.

The cases that follow already have their TCF/Wnt firefly luciferase reporter signal on record.
CC(=O)O[C@H]1C[C@@H](OC(C)=O)C(C)(C)[C@@H]2C[C@@H](OC(C)=O)[C@@]3(C)C4=CC(=O)O[C@@H](c5ccoc5)[C@]4(C)CC[C@@H]3[C@@]12C; 0.976
COc1cc(C(=O)NCc2ccc(OCCN(C)C)cc2)cc(OC)c1OC; 0.871
NCC(=O)CCC(=O)O; 1.1
Cc1cc(NS(=O)(=O)c2ccc(N)cc2)no1; 1.09
CN(C)CCOC(c1ccc(Cl)cc1)c1ccccn1 (stereo not given); 0.888

Measured on DLD1, `COc1ccc2c(c1)c(CC(=O)OCC(=O)O)c(C)n2C(=O)c1ccc(Cl)cc1` has a documented TCF/Wnt firefly luciferase reporter signal of 1.05

Measured on DLD1, `C=C[C@]1(C)C=C2C(=O)[C@@]3(O)OC(=O)[C@@]4(CCCC(C)(C)[C@H]34)[C@@]2(O)CC1` has a documented TCF/Wnt firefly luciferase reporter signal of 0.938

----------
Test system: HCT116
Experiment: cell viability (CellTiter-Glo) relative to plate median (fraction of plate median); higher = more viable cells
Details: 5 µM; treatment time 24 h; reporter: TCF4/Wnt
Property: cell viability; scope: individual compounds
Answer field: number only, no words.

O=C(/C=C/c1ccc(O)cc1)c1ccc(O)cc1O; 1.03

compound `C[C@H]1C(=O)CC[C@@H]2[C@]1(C)CC[C@H]1[C@@]2(C)CC[C@@]2(C)[C@@H]3CC(C)(C)CC[C@]3(C)CC[C@]12C` , cell viability observed: 0.983

compound `COc1cc(-c2oc3cc(O)ccc3c(=O)c2O)ccc1O` , cell viability observed: 1.12

----------
Property: TCF/Wnt firefly luciferase reporter signal; scope: individual compounds
System: DLD1
Assay: TCF/Wnt firefly luciferase reporter signal relative to plate median (fraction of plate median); higher = higher Wnt reporter signal
Settings: 5 µM; treatment time 24 h; reporter: 7TFP
Answer field: number only, no words.

The cases that follow already have their TCF/Wnt firefly luciferase reporter signal on record.
COc1cc(O)c2c(=O)cc(C)oc2c1CC=C(C)C; 0.91
CC(=O)/C(=C\c1ccccc1)CC(=O)O; 0.894
S=P(N1CC1)(N1CC1)N1CC1; 0.975
COc1ccc(C(=O)c2ccccc2)c(O)c1; 0.863
CC(=O)/C=C\[C@@H]1[C@@]2(C)CCCC(C)(C)C2CC[C@@]1(C)O (some centres undefined); 1.17
CC(C)C(=O)Nc1ccc([N+](=O)[O-])c(C(F)(F)F)c1; 0.924
O=C(NC(Cc1cc(=O)[nH]c2ccccc12)C(=O)O)c1ccc(Cl)cc1 (centres undefined); 0.909
COc1ccc2c(=O)c(CC(=O)O)coc2c1; 1

# evaluate next
compound `O=c1cccc2ccc(O)c(O)c2c1O` , TCF/Wnt firefly luciferase reporter signal observed: 0.994

----------
System: DLD1
Assay: TCF/Wnt firefly luciferase reporter signal relative to plate median (fraction of plate median); higher = higher Wnt reporter signal
Settings: 5 µM; treatment time 24 h; reporter: 7TFP
endpoint.label: TCF/Wnt firefly luciferase reporter signal

N[C@@H](C(=O)O)[C@@H](O)[C@H](O)[C@H](O)CO; 1
COC(=O)[C@H]1[C@H]2C[C@H]3c4[nH]c5ccccc5c4CCN3C[C@@H]2CC[C@@H]1O; 1.01
CC(NCCc1ccc(O)cc1)C(O)c1ccc(O)cc1 (stereo not drawn); 0.981
O=C1OC(c2ccc(O)cc2)(c2ccc(O)cc2)c2ccccc21; 0.981
COc1cc(-c2coc3cc(O[C@@H]4O[C@H](CO)[C@@H](O)[C@H](O)[C@H]4O)c(OC)c(O)c3c2=O)cc(O)c1OC; 1.01

compound `O=c1cc(-c2ccc(O)cc2)oc2cc(O[C@@H]3O[C@H](CO)[C@@H](O)[C@H](O)[C@H]3O)cc(O)c12` , TCF/Wnt firefly luciferase reporter signal observed: 1.02

compound `COc1cc(OC)c2c(=O)c(-c3ccccc3)c(C)oc2c1OC` , TCF/Wnt firefly luciferase reporter signal observed: 1

----------
Tested on: DLD1
Experiment: TCF/Wnt firefly luciferase reporter signal relative to plate median (fraction of plate median); higher = higher Wnt reporter signal
Conditions: 5 µM; treatment time 24 h; reporter: 7TFP
endpoint.label: TCF/Wnt firefly luciferase reporter signal
Answer field: number only, no words.

Measured on DLD1, CC1=C(CCC(=O)O)c2cc3nc(cc4[nH]c(cc5[nH]c(cc1n2)c(C)c5C(C)O)c(C)c4C(C)O)C(C)=C3CCC(=O)O (configuration not stated) has a documented TCF/Wnt firefly luciferase reporter signal of 1.01

----------
Tested on: HCT116
Experiment: cell viability (CellTiter-Glo) relative to plate median (fraction of plate median); higher = more viable cells
Conditions: 5 µM; treatment time 24 h; reporter: TCF4/Wnt
Property: cell viability; scope: individual compounds
Answer field: number only, no words.

The cases that follow already have their cell viability on record.
CC(C)NCC(O)c1cc(O)cc(O)c1 (stereo unspecified); 0.954
CC(=O)c1ccc2c(c1)N(CCCN(C)C)c1ccccc1S2; 0.931
CC(C)[C@H](NC(=O)[C@@H]1CCCN1)C(=O)N1CCNC(=O)C1=O; 1.14
O=C(/C=C/c1ccccc1)c1ccc(O)cc1; 0.906
CC(=O)CC(=O)CCC(=O)O; 0.996
CC(N/C(=N\C#N)Nc1ccncc1)C(C)(C)C (stereo unspecified); 0.904
COc1ccccc1N1CCN(CCCNc2cc(=O)n(C)c(=O)n2C)CC1; 0.885
CCC(CCC(C)C1CCC2C3CCC4CC(O)CCC4(C)C3CCC12C)C(C)C (stereo unspecified); 1.06

compound `CC(=O)Oc1ccc(C(c2ccc(OC(C)=O)cc2)c2ccccn2)cc1` , cell viability observed: 0.931

compound `NC(N)=Nc1nc(CSCC/C(N)=N/S(N)(=O)=O)cs1` , cell viability observed: 1.01

compound `CC1(C)O[C@@H]2C[C@H]3[C@@H]4CCC5=CC(=O)C=C[C@]5(C)[C@H]4[C@@H](O)C[C@]3(C)[C@]2(C(=O)CO)O1` , cell viability observed: 1.06

compound `O=c1cc[nH]c(=S)[nH]1` , cell viability observed: 1.04

compound `CCN1CCN(c2cc3c(cc2F)c(=O)c(C(=O)O)cn3C2CC2)CC1` , cell viability observed: 0.907

compound C[C@@H]1O[C@H]2O[C@@H]3[C@@H](C)OC(c4ccc5c(c4O)C(=O)c4ccc(C[C@@](C)(O)CC(=O)O)c(O)c4C5=O)C[C@H]3O[C@H]2CC1=O (stereo partly specified) , cell viability observed: 0.942

compound `COc1cc(O)cc(OC)c1OC` , cell viability observed: 1.01

compound `CN(C)CC/C=C1/c2ccccc2Sc2ccc(Cl)cc21` , cell viability observed: 0.98

----------
Property: TCF/Wnt firefly luciferase reporter signal; scope: individual molecules
System: HCT116
Assay: TCF/Wnt firefly luciferase reporter signal relative to plate median (fraction of plate median); higher = higher Wnt reporter signal
Conditions: 10 µM; treatment time 24 h; reporter: TCF4/Wnt

Nc1nc(N)c2nc(-c3cccc(O)c3)c(-c3cccc(O)c3)nc2n1; 1.23
COc1cc2c(Nc3ccc(NC(=O)c4ccccc4)cc3)ncnc2cc1OCCCN1CCOCC1; 1.42

# evaluate next
molecule `CC(C)(C)c1cnc(CSc2cnc(NC(=O)C3CCNCC3)s2)o1` , TCF/Wnt firefly luciferase reporter signal observed: 0.228

----------
Tested on: DLD1
Test: TCF/Wnt firefly luciferase reporter signal relative to plate median (fraction of plate median); higher = higher Wnt reporter signal
Conditions: 5 µM; treatment time 24 h; reporter: 7TFP
endpoint.label: TCF/Wnt firefly luciferase reporter signal
Answer field: number only, no words.

The cases that follow already have their TCF/Wnt firefly luciferase reporter signal on record.
Cc1cc(-n2c(=O)[nH]c(=O)n(C)c2=O)ccc1Oc1ccc(SC(F)(F)F)cc1; 0.926
C=CC(C)(O)CCC=C(C)CCC=C(C)C (mixture of isomers); 0.834

# evaluate next
compound `CC(=O)OCC(=O)[C@@]1(O)CC[C@H]2[C@@H]3CCC4=CC(=O)C=C[C@]4(C)[C@H]3[C@@H](O)C[C@@]21C` , TCF/Wnt firefly luciferase reporter signal observed: 1.08

----------
Test system: DLD1
Assay: TCF/Wnt firefly luciferase reporter signal relative to plate median (fraction of plate median); higher = higher Wnt reporter signal
Conditions: 5 µM; treatment time 24 h; reporter: 7TFP
endpoint.label: TCF/Wnt firefly luciferase reporter signal

The cases that follow already have their TCF/Wnt firefly luciferase reporter signal on record.
C[C@]12CCC[C@H](O1)c1c(cc3c(c1O)C(=O)c1c(O)cc(O)cc1C3=O)O2 [Averufin (Isoform B, Compound ID 7395)]; 1.02
CO[C@H]1C[C@H](O[C@H]2[C@H](C)[C@@H](O[C@@H]3O[C@H](C)C[C@H](N(C)C)[C@H]3OC(C)=O)[C@@H](C)C[C@@]3(CO3)C(=O)[C@H](C)[C@@H](OC(C)=O)[C@@H](C)[C@@H](C)OC(=O)[C@@H]2C)O[C@@H](C)[C@@H]1OC(C)=O; 1.03
CC1(C)[C@@H](O)CC[C@]2(C)[C@H]3C(=O)C=C4[C@@H]5C[C@@](C)(C(=O)O)CC[C@]5(C)CC[C@@]4(C)[C@]3(C)CC[C@@H]12; 1.04
OC(CCN1CCCCC1)(c1ccccc1)C1CCCCC1 (stereo unspecified); 0.855
COc1ccc2c(=O)c(-c3cc4c(cc3OC)OCO4)coc2c1; 1.03

# evaluate next
molecule O=c1oc(CO)c(CO)c2cccc(O)c12 [8-hydroxy-3,4-bis-(hydroxymethyl)-isocumarin] , TCF/Wnt firefly luciferase reporter signal observed: 1.09
